tested on: Fibroblast; assay: Multiplex assay against human fibroblast; assay type: toxicity, cell-based; settings: 12 h, 10 µM, compound concentration 10 uM, replicate 1
Decide using Population Normal (%): a value greater than or equal to 80% is Met, a smaller one is Not met.

Below are worked cases with known answers.
{"compound": "CC(C)(C)NC[C@H](O)COc1nsnc1N1CCOCC1", "classification": "Met"}
{"compound": "C=CC(=O)Nc1cccc(Sc2nc(Nc3ccc(N4CCN(C)CC4)cc3)ncc2Cl)c1", "classification": "Met"}
{"compound": "O=c1cc(N2CCOCC2)oc2c(-c3cccc4c3sc3ccccc34)cccc12", "classification": "Met"}
{"compound": "CC1=C(C(=O)Nc2cc3cn[nH]c3cc2F)C(c2ccc(C(F)(F)F)cc2)CC(=O)N1 (centres undefined)", "classification": "Met"}

Tell me whether Population Normal (%) is at least 80% here: Cc1cccc(CN2CCN(C(c3ccccc3)c3ccc(Cl)cc3)CC2)c1.Cl.Cl (centres undefined) Met

Tell me whether Population Normal (%) is at least 80% here: `COc1cc(Nc2nccc(-c3cnn4nc(OC)ccc34)n2)cc(C(F)(F)F)c1` Not met

Is Population Normal (%) at least 80%? Consider `C[C@]12CC[C@@H]3c4ccc(O)cc4CC[C@H]3[C@@H]1CC[C@@H]2O` Met

Is Population Normal (%) at least 80%? Consider `O=c1[nH]c2ccccc2n1C1CCN(Cc2ccc(-c3[nH]c4cc5ncnc5cc4nc3-c3ccccc3)cc2)CC1` Not met

Does the compound `C=CC(=O)Nc1ccc2[nH]c(=O)n(C3CCN(Cc4ccc(-c5nc6cc[nH]c(=O)c6cc5-c5ccccc5)cc4)CC3)c2c1` have recorded Population Normal (%) that is 80% or more? Met

---

system: Fibroblast; assay: Multiplex assay against human fibroblast; type: toxicity, cell-based; conditions: 12 h, 10 µM, compound concentration 10 uM, replicate 2
Friendly reminder: Population Normal (%) below 90% is Fulfilled, at or above is Not fulfilled.

{"compound": "CC(C)(C)NC[C@H](O)COc1nsnc1N1CCOCC1", "classification": "Not fulfilled"}
{"compound": "COc1cc(Nc2nccc(-c3cnn4nc(OC)ccc34)n2)cc(C(F)(F)F)c1", "classification": "Fulfilled"}

A record lists `CCc1ccc(OCc2ccccc2C(=O)Nc2ccc3nc(C)cc(N)c3c2)cc1.Cl` . Is its Population Normal (%) below 90%? Fulfilled

Input O=C(c1cc2c(cc1F)OC(c1ccc(F)cc1)(c1ccc(Cl)cc1Cl)O2)N1CCOCC1 (centres undefined) ; condition: Population Normal (%) strictly below 90%. Does it hold? Not fulfilled

# strict comparison: is reported Population Normal (%) < 90%? input = Cc1cccc(CN2CCN(C(c3ccccc3)c3ccc(Cl)cc3)CC2)c1.Cl.Cl (centres undefined) Not fulfilled

---

test system: Fibroblast; assay: Multiplex assay against human fibroblast; type: toxicity, cell-based; settings: 12 h, 1 µM, compound concentration 1 uM, replicate 2
Give Population Mitochondria Different-Phenotype (%) for every item shown.
Answers are plain numbers, in %.

For orientation, consider the following solved cases.
{"compound": "O=C(c1cc2c(cc1F)OC(c1ccc(F)cc1)(c1ccc(Cl)cc1Cl)O2)N1CCOCC1 (stereo not drawn)", "experimental-result": 12}
{"compound": "CC(C)NC(=O)N1CC[C@H](NC2=Nc3cc(F)ccc3N(CC(F)F)c3ccc(Cl)cc32)C1", "experimental-result": 18}
{"compound": "CC(C)c1noc(N2CCC(COc3ccc(-c4ccc(S(C)(=O)=O)cc4)nc3)CC2)n1", "experimental-result": 4}

Answer for every listed entry: what is its Population Mitochondria Different-Phenotype (%)? The entries follow.
1. CC(C)Oc1ccccc1C(=O)Nc1ccccc1C(=O)Nc1cccc(S(=O)(=O)C(F)(F)F)c1
2. Cl.O=C(O)c1cc(-c2ccc(C3CCNCC3)cc2)c2ccc(-c3ccc(C(F)(F)F)cc3)cc2c1
3. C[C@]12CC[C@@H]3c4ccc(O)cc4CC[C@H]3[C@@H]1CC[C@@H]2O
4. COc1cc2ncn(-c3cc(OCc4ccccc4C(F)(F)F)c(C(N)=O)s3)c2cc1OC [GW843682X]

45
16
8
10

What Population Mitochondria Different-Phenotype (%) appears in the records for this compound with Fibroblast? CC1=C(C(=O)Nc2cc3cn[nH]c3cc2F)C(c2ccc(C(F)(F)F)cc2)CC(=O)N1 (stereo not drawn) 9

---

system: Fibroblast; test: Multiplex assay against human fibroblast; assay type: toxicity, cell-based; conditions: 48 h, 10 µM, compound concentration 10 uM, replicate 2
readout-kind: Population Membrane Permeable-Phenotype (%)
Numbers only, in %.

In the examples that follow, each entry is paired with its recorded Population Membrane Permeable-Phenotype (%).
{"compound": "CCCSc1nc(N[C@@H]2C[C@H]2c2ccc(F)c(F)c2)c2nnn([C@@H]3C[C@H](OCCO)[C@@H](O)[C@H]3O)c2n1 [TICAGRELOR]", "experimental-result": 2}
{"compound": "CN1CCN(Cc2ccc(Nc3ncc(Cl)c(Nc4ccccc4S(=O)(=O)N(C)C)n3)cc2)CC1 [DUBERMATINIB]", "experimental-result": 32}
{"compound": "COc1cc(Nc2nccc(-c3cnn4nc(OC)ccc34)n2)cc(C(F)(F)F)c1", "experimental-result": 4}

For each of the compounds below, note its Population Membrane Permeable-Phenotype (%).
1. COc1ccc(-c2ccc3ncc4c(c3c2)n(-c2ccc(N3CCNCC3)c(C(F)(F)F)c2)c(=O)n4C)cn1.O=C(O)/C=C\C(=O)O [BGT-226]
2. O=c1cc(N2CCOCC2)oc2c(-c3cccc4c3sc3ccccc34)cccc12
3. CCc1nn(CCCN2CCN(c3cccc(Cl)c3)CC2)c(=O)n1CCOc1ccccc1.Cl [NEFAZODONE HYDROCHLORIDE]

1. 44
2. 6
3. 2

Quick batch: Population Membrane Permeable-Phenotype (%) for everything below.
1. CC(C)NC(=O)N1CC[C@H](NC2=Nc3cc(F)ccc3N(CC(F)F)c3ccc(Cl)cc32)C1
2. Cl.O=C(O)c1cc(-c2ccc(C3CCNCC3)cc2)c2ccc(-c3ccc(C(F)(F)F)cc3)cc2c1

1: 6; 2: 4

---

test system: U2OS; experiment: Multiplex assay against U2OS; assay type: toxicity, cell-based; details: human, 24 h, 1 µM, compound concentration 1 uM, replicate 1
readout-kind: Population Healthy Nuclei (%)
Numbers only, in %.

Examples with answers:
{"compound": "CC(C)NC(=O)N1CC[C@H](NC2=Nc3cc(F)ccc3N(CC(F)F)c3ccc(Cl)cc32)C1", "experimental-result": 78}
{"compound": "CC(C)Oc1ccccc1C(=O)Nc1ccccc1C(=O)Nc1cccc(S(=O)(=O)C(F)(F)F)c1", "experimental-result": 71}
{"compound": "COc1cc(Nc2nccc(-c3cnn4nc(OC)ccc34)n2)cc(C(F)(F)F)c1", "experimental-result": 61}
{"compound": "COc1ccccc1CN[C@H]1C2CCN(CC2)[C@H]1C(c1ccccc1)c1ccccc1 [CP-96345]", "experimental-result": 79}
{"compound": "Cc1nc(N2CC[C@H](O)C2)ncc1-c1cc(C(F)(F)F)cc2[nH]ncc12", "experimental-result": 94}

Look at this compound and give its reported Population Healthy Nuclei (%). Cc1ccc2c(c1)c1c(n2CCc2ccc(C)nc2)CCN(C)C1 [LATREPIRDINE] 83

---

system: U2OS; test: Multiplex assay against U2OS; format: toxicity, cell-based; details: human, 24 h, 10 µM, compound concentration 10 uM, replicate 1
Consider the cut-off 6%. If the recorded Population Hoechst High Intensity Objects (%) is strictly smaller, the label is Condition met; if not, the label is Condition not met.

Worked examples, 3 compounds total:
{"compound": "O=C(c1cc2c(cc1F)OC(c1ccc(F)cc1)(c1ccc(Cl)cc1Cl)O2)N1CCOCC1 (stereo not drawn)", "classification": "Condition not met"}
{"compound": "CC(C)(C)NC[C@H](O)COc1nsnc1N1CCOCC1", "classification": "Condition met"}
{"compound": "CC(C)CC(=O)Nc1[nH]nc2c1CN(C(=O)C1CCN(C)CC1)C2(C)C", "classification": "Condition met"}

For this compound, is Population Hoechst High Intensity Objects (%) lower than 6%? `CN1CCN(Cc2ccc(Nc3ncc(Cl)c(Nc4ccccc4S(=O)(=O)N(C)C)n3)cc2)CC1` Condition not met

Below 6% on Population Hoechst High Intensity Objects (%)? Entry CCc1nn(CCCN2CCN(c3cccc(Cl)c3)CC2)c(=O)n1CCOc1ccccc1.Cl [NEFAZODONE HYDROCHLORIDE] Condition not met

Strictly below 6%: is that where Population Hoechst High Intensity Objects (%) of `Cc1c[nH]c2nccc(Oc3c(F)cc(Nc4cc(Cl)nc(N)n4)cc3F)c12` sits? Condition not met

---

Please provide measured Population Membrane Permeable-Phenotype (%) for the entries that follow.
tested on: HEK-293T; assay: Multiplex assay against HEK293T; assay type: toxicity, cell-based; settings: human, 12 h, 1 µM, compound concentration 1 uM, replicate 2
Numbers only, in %.

The following compounds have reported results that may help.
{"compound": "CC(C)CC(=O)Nc1[nH]nc2c1CN(C(=O)C1CCN(C)CC1)C2(C)C [PHA-793887]", "experimental-result": 1}
{"compound": "Cc1c[nH]c2nccc(Oc3c(F)cc(Nc4cc(Cl)nc(N)n4)cc3F)c12 [BAY-549]", "experimental-result": 8}
{"compound": "CNC(=O)Nc1ccc2c(c1)[C@@]1(CC2)OC(=O)N(CC(=O)N(Cc2ccc(F)cc2)[C@@H](C)C(F)(F)F)C1=O [A-486]", "experimental-result": 29}

Field: Population Membrane Permeable-Phenotype (%). Fill in for each record below.
1. O=c1cc(N2CCOCC2)oc2c(-c3cccc4c3sc3ccccc34)cccc12
2. COC(=O)C1=C(C)NC(C)=C(C(=O)OCCCN2CCC(c3ccccc3)(c3ccccc3)CC2)[C@H]1c1cccc([N+](=O)[O-])c1 [NIGULDIPINE]
3. CC(C)OC(=O)N1CCC(Oc2ncnc3c2cnn3-c2ccc(S(C)(=O)=O)cc2F)CC1
4. O=c1[nH]c2ccccc2n1C1CCN(Cc2ccc(-c3[nH]c4cc5ncnc5cc4nc3-c3ccccc3)cc2)CC1

1. 1
2. 1
3. 5
4. 5

Hey, quick one: what's Population Membrane Permeable-Phenotype (%) for each of these?
1. Cl.O=C(O)c1cc(-c2ccc(C3CCNCC3)cc2)c2ccc(-c3ccc(C(F)(F)F)cc3)cc2c1
2. CCc1ccc(OCc2ccccc2C(=O)Nc2ccc3nc(C)cc(N)c3c2)cc1.Cl

[7, 0]
